Parameter inhibition at 0.2 µM: see the listing below.
assayed-system: CB1 receptor (Homo sapiens)
Construct: expressed in transfected cells
protocol: Binding assay for CB1 agonists or inverse agonists (SK-N-MC membranes, [3H]-CP-55,940)
stated-conditions: read-out: CB1 receptor binding percent inhibition
Supply the numeric figure in %, leaving out any unit text.

// below: answered compounds
Suppose we examine the compound `C[C@@H](NC(=O)c1n[nH]c2c1CCCC/C2=C\c1ccc(Cl)cc1)c1ccccc1` ; what inhibition at 0.2 µM value has been reported?
83

Look up inhibition at 0.2 µM for this compound: `C[C@H](NC(=O)c1nn(-c2cc(Cl)ccc2Cl)c2c1CCCC/C2=C\c1ccc(Cl)cc1)c1ccccc1`
87

I am curious: what inhibition at 0.2 µM value has been reported for `C[C@@H](NC(=O)c1nn(-c2cc(Cl)ccc2Cl)c2c1CCCC/C2=C\c1ccc(Cl)cc1)c1ccccc1` ?
63

Continuing:
Dear colleague, I am looking for the recorded inhibition at 0.2 µM of the following compound: `C[C@H](NC(=O)c1n[nH]c2c1CCCC/C2=C\c1ccc(Cl)cc1)c1ccccc1`
95

----------
assayed-system: CB1 receptor (Homo sapiens, UniProt P21554)
Construct: expressed in transfected cells
Sequence (P21554 whole entry): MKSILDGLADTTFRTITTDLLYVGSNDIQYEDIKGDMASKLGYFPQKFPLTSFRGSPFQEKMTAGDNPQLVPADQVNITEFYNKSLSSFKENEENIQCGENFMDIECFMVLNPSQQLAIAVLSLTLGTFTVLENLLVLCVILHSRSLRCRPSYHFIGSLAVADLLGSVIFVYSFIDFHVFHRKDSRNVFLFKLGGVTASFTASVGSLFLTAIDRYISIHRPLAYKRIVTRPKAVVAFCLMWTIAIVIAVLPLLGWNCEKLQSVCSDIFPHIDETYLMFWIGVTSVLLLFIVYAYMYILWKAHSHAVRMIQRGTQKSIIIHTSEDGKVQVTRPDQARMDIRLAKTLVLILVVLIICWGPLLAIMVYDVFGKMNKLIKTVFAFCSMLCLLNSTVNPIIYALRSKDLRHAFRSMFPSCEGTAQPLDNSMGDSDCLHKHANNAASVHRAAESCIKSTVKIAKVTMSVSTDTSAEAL
protocol: Binding assay for CB1 agonists or inverse agonists (SK-N-MC membranes, [3H]-CP-55,940)
stated-conditions: read-out: CB1 receptor binding percent inhibition, test concentration 1 μM (footnote 1)
measured-quantity: inhibition at 1 µM
Please state the number and follow it with the unit.

# example entries with known answers
I am curious: what inhibition at 1 µM value has been reported for O=C(NC1CCC1)c1nn(C2CCCCC2)c2c1CCCCC2Cc1ccc(F)cc1 (centres unmarked) ?
35%

Query (compound): O=C(N[C@@H]1c2ccccc2C[C@@H]1O)c1nn(-c2ccc(F)cc2F)c2c1CCCCC2Cc1cccc(F)c1 (some centres unmarked) ; field requested: inhibition at 1 µM
31%

Next:
inhibition at 1 µM for C[C@H](NC(=O)c1nn(C2CCCCC2)c2c1CCCCC2Cc1ccc(Cl)cc1)c1ccccc1 (some centres unmarked) ?
22%

Return reported inhibition at 1 µM; argument: O=C(NC1CC1)c1nn(C2CCCCC2)c2c1CCCCC2Cc1ccccc1Cl (centres unmarked)
0%

Given the compound C[C@@H](NC(=O)c1nn(C2CCCCC2)c2c1CCCCC2Cc1ccc(Cl)cc1)c1ccccc1 (some centres unmarked) , what is its reported inhibition at 1 µM?
26%

Value lookup for inhibition at 1 µM; key = C[C@@H](NC(=O)c1nn(C2CCCCC2)c2c1CCCCC2Cc1cccc(Cl)c1)c1ccccc1 (some centres unmarked)
30%

Report inhibition at 1 µM for O=C(NN1CCOCC1)c1nn(-c2ccc(F)cc2F)c2c1CCCCC2Cc1cccc(F)c1 (centres unmarked) please.
14%

So what does the record say about inhibition at 1 µM for O=C(N[C@@H]1c2ccccc2C[C@@H]1O)c1nn(C2CCCCC2)c2c1CCCCC2Cc1ccc(F)cc1 (relative stereo) ?
80%

----------
assayed-system: CB1 receptor (Homo sapiens, UniProt P21554)
Construct: expressed in transfected cells
protocol: Binding assay for CB1 agonists or inverse agonists (SK-N-MC membranes, [3H]-CP-55,940)
stated-conditions: read-out: CB1 receptor binding percent inhibition, test concentration 1 μM (footnote 1)
Quick rule: inhibition at 1 µM of at least 30% means condition met, below that means condition not met.

Take a look at these entries with their results.
Quick check: does O=C(NC1CCC1)c1nn(-c2ccc(Cl)cc2Cl)c2c1CCCCC2Cc1cccc(Cl)c1 (stereo not shown) [Cpd 24] have inhibition at 1 µM greater than or equal to 30%?
condition not met

Exam item: decide whether the reported inhibition at 1 µM for Cn1nc(/C=C/S(=O)(=O)NN2CCOCC2)c2c1C(Cc1ccc(F)cc1)CCCC2 (stereo not shown) [Cpd 126] is at least 30%.
condition not met

Test whether the compound CCOC(=O)[C@@H]1C2CCC(C2)[C@@H]1NC(=O)c1nn(C2CCCCC2)c2c1CCCCC2Cc1ccc(F)cc1 (stereo partly shown) [Cpd 106] records inhibition at 1 µM of 30% or higher.
condition met

Hi, just wondering whether O=S(=O)(/C=C/c1nn(-c2ccc(F)cc2F)c2c1CCCCC2Cc1ccc(F)cc1)NN1CCCCC1 (stereo not shown) [Cpd 122] shows inhibition at 1 µM of 30% or higher.
condition not met

Further cases:
Does inhibition at 1 µM meet or surpass 30% for O=C(NN1CCOCC1)c1nn(-c2ccc(Cl)cc2Cl)c2c1CCCCC2Cc1cccc(F)c1 (stereo not shown) [Cpd 91] ?
condition met

Answer whether inhibition at 1 µM of C[C@H](NC(=O)c1nn(C2CCCCC2)c2c1CCCCC2Cc1cccc(F)c1)c1ccccc1 (stereo partly shown) [Cpd 45] is greater than or equal to 30%.
condition met

----------
assayed-system: CB2 receptor (Homo sapiens)
Construct: expressed in transfected cells
Sequence (P34972 whole entry): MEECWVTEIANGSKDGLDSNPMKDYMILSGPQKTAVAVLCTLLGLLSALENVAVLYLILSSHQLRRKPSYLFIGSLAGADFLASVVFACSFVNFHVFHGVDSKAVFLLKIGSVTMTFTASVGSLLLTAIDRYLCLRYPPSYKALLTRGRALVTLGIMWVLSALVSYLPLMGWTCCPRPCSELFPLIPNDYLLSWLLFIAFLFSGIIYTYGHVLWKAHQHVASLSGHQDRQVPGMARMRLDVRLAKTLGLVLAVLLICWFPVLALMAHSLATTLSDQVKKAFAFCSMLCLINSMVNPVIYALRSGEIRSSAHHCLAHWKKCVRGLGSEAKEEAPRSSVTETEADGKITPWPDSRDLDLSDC
protocol: Binding assay for CB2 agonists or inverse agonists (SK-N-MC membranes, [3H]-CP-55,940)
stated-conditions: test concentration not stated
Description: The human CB1 and CB2 receptors were stably expressed in SK-N-MC cells transfected with pcDNA3 CB-1 (human) or pcDNA3 CB-2 (human). […] On the day of the assay, the pellet was thawed on ice and diluted in assay buffer (50 mM Tris-HCl, 5 mM MgCl2, 2.5 mM EDTA, 0.5 mg/mL fatty acid free bovine serum aldumin, pH 7.5). […] The Unifilter plate was dried, a scintillation cocktail was added to each well and the counts representing binding were quantitated in a TopCount scintillation counter. […]
Catalogue of compounds with associated CB2 receptor binding percent inhibition
All answers are understood in %, so give the number only.

What value of CB2 receptor binding percent inhibition has been recorded for this entry: Cn1nc(/C=C/S(=O)(=O)NN2CCOCC2)c2c1C(Cc1cccc(F)c1)CCCC2 (centres unmarked)
30

What does the data say about its CB2 receptor binding percent inhibition? Entry: O=C(NC1CCC1)c1nn(C2CCCCC2)c2c1CCCCC2Cc1cccc(F)c1 (centres unmarked)
42

Name the reported CB2 receptor binding percent inhibition value associated with the compound O=C(NC1CC1)c1nn(C2CCCCC2)c2c1CCCCC2Cc1ccc(Cl)cc1 (centres unmarked)
0

Which value of CB2 receptor binding percent inhibition has been reported for Cn1nc(/C=C/S(=O)(=O)NN2CCCCC2)c2c1C(Cc1ccc(F)cc1)CCCC2 (centres unmarked) in the records?
0

Name the reported CB2 receptor binding percent inhibition value associated with the compound COC(=O)[C@H](Cc1ccc(F)cc1)NC(=O)c1nn(C2CCCCC2)c2c1CCCCC2Cc1cccc(F)c1 (some centres unmarked)
8

# lookup: CB2 receptor binding percent inhibition of O=C(NC1CCCC1)c1nn(C2CCCCC2)c2c1CCCCC2Cc1cccc(F)c1 (centres unmarked)
21

Entry O=C(NN1CCOCC1)c1nn(-c2ccc(Cl)cc2Cl)c2c1CCCCC2Cc1cccc(Cl)c1 (centres unmarked) : reported CB2 receptor binding percent inhibition = ?
22

# ---- query compound ----
Given O=C(NC1C2CC3CC(C2)CC1C3)c1nn(C2CCCCC2)c2c1CCCCC2Cc1cccc(Cl)c1 (centres unmarked) , state its recorded CB2 receptor binding percent inhibition.
31

----------
assayed-system: CB1 receptor (Homo sapiens)
Construct: expressed in transfected cells
protocol: cell-based
stated-conditions: CB1 Receptor Functional Inverse Agonist EC50, forskolin induced β-galactosidase activity, SK-N-MC cells
This section presents compounds with their documented pEC50 values.
Value format note: pEC50 is -log10 of concentration (mol/L); just state the number.

Study these solved cases before continuing.
Which pEC50 is reported with CB1 receptor (Homo sapiens) for this entry: O=C(N[C@H](CCl)c1ccccc1)c1nn(-c2ccc(F)cc2F)c2c1CCCCC2Cc1ccc(F)cc1 (stereo partly shown) [Cpd 172] ?
7.00

Form field: pEC50 recorded for CC(NC(=O)c1nn(-c2ccc(Cl)cc2Cl)c2c1CCCC/C2=C\c1ccc(F)cc1)c1ccccn1 (stereo not shown) [Cpd 224] with CB1 receptor (Homo sapiens) (enter value)
8.40

Give pEC50 (CB1 receptor (Homo sapiens)) of the following compound: O=C(NC1CCCc2ccccc21)c1nn(-c2ccc(Cl)cc2Cl)c2c1CCCC/C2=C\c1ccc(F)cc1 (stereo not shown) [Cpd 209]
8.00

GET /values?readout=pEC50&system=CB1 receptor (Homo sapiens)&item= O=C(N[C@@H](CO)c1ccccc1)c1nn(C2CCCCC2)c2c1CCCCC2Cc1cccc(F)c1 (stereo partly shown) [Cpd 55]
6.40

Request body: readout pEC50, system CB1 receptor (Homo sapiens), query COc1ccc(/C=C2\CCCCc3c(C(=O)N[C@H](C)c4ccccn4)nn(-c4ccc(Cl)cc4Cl)c32)cc1 [Cpd 227] . Return the value.
8.70

Now look at this one.
Test system CB1 receptor (Homo sapiens); read-out pEC50; what value for COc1ccc(/C=C2\CCCCc3c(C(=O)N[C@@H](C)c4ccccc4)nn(-c4ccc(Cl)cc4Cl)c32)cc1 [Cpd 213] ?
8.00

----------
assayed-system: CB1 receptor (Homo sapiens, UniProt P21554)
Construct: expressed in transfected cells
protocol: Binding assay for CB1 agonists or inverse agonists (SK-N-MC membranes, [3H]-CP-55,940)
stated-conditions: read-out: CB1 receptor binding percent inhibition, test concentration 1 μM (footnote 1)
# inhibition at 1 µM >= 20% gives fulfilled, anything below gives not fulfilled

As a guide, the following entries are already answered.
Could you please find out whether O=C(NC1CCC1)c1nn(C2CCCCC2)c2c1CCCCC2Cc1cccc(F)c1 (centres unmarked) has inhibition at 1 µM that meets 20% or exceeds it?
not fulfilled

Assess whether reported inhibition at 1 µM for CC12CCC(C1)C(C)(C)[C@H]2NC(=O)c1nn(Cc2ccccc2)c2c1CCCCC2c1ccccc1 (some centres unmarked) sits at 20% or higher.
fulfilled

Textbook exercise: given the entry C[C@H](NC(=O)c1nn(Cc2ccccc2)c2c1CCCCC2c1ccccc1)c1ccccc1 (some centres unmarked) , state whether its inhibition at 1 µM is greater than or equal to 20%.
fulfilled

Has O=C(NC1CC1)c1nn(C2CCCCC2)c2c1CCCCC2Cc1ccc(F)cc1 (centres unmarked) a recorded inhibition at 1 µM greater than or equal to 20%?
not fulfilled

New cases:
Determine whether measured inhibition at 1 µM meets or exceeds 20% for O=C(NC1C2CC3CC(C2)CC1C3)c1nn(C2CCCCC2)c2c1CCCCC2Cc1ccc(Cl)cc1 (centres unmarked)
fulfilled

Could you please find out whether O=C(NC1CCC1)c1nn(C2CCCCC2)c2c1CCCCC2Cc1ccccc1Cl (centres unmarked) has inhibition at 1 µM that meets 20% or exceeds it?
not fulfilled

Given O=C(NC1CCC1)c1nn(C2CCCCC2)c2c1CCCCC2Cc1cccc(Cl)c1 (centres unmarked) , state whether its inhibition at 1 µM is at least 20%.
fulfilled

In plain terms: is recorded inhibition at 1 µM at least 20% for CC(C)(C)OC(=O)N1CCC(NC(=O)c2nn(C3CCCCC3)c3c2CCCCC3Cc2cccc(F)c2)CC1 (centres unmarked) ?
fulfilled

Assess whether reported inhibition at 1 µM for O=C(NC1CCCC1)c1nn(C2CCCCC2)c2c1CCCCC2Cc1cccc(F)c1 (centres unmarked) sits at 20% or higher.
fulfilled

Exam item: decide whether the reported inhibition at 1 µM for O=C(NN1CCOCC1)c1nn(C2CCCCC2)c2c1CCCCC2Cc1ccc(F)cc1 (centres unmarked) is at least 20%.
not fulfilled

Please indicate if the recorded inhibition at 1 µM for O=C(NC1CC1)c1nn(C2CCCCC2)c2c1CCCCC2Cc1ccc(Cl)cc1 (centres unmarked) meets or exceeds 20%.
not fulfilled

Test whether the compound O=C(NC1CC1)c1nn(C2CCCCC2)c2c1CCCCC2Cc1cccc(F)c1 (centres unmarked) records inhibition at 1 µM of 20% or higher.
fulfilled

In plain terms: is recorded inhibition at 1 µM at least 20% for COC(=O)[C@@H](Cc1ccc(O)cc1)NC(=O)c1nn(-c2ccc(F)cc2F)c2c1CCCCC2Cc1cccc(F)c1 (some centres unmarked) ?
fulfilled

Tell me whether inhibition at 1 µM is at least 20% here: C[C@H](NS(=O)(=O)/C=C/c1n[nH]c2c1CCCCC2Cc1cccc(F)c1)c1ccccc1 (some centres unmarked)
not fulfilled

Test whether the compound CC12CCC(C1)C(C)(C)[C@H]2NC(=O)c1nn(C2CCCCC2)c2c1CCCCC2Cc1ccc(F)cc1 (some centres unmarked) records inhibition at 1 µM of 20% or higher.
fulfilled

Is inhibition at 1 µM for O=C(NC1CC1)c1nn(Cc2ccc(Cl)cc2)c2c1CCCCC2Cc1ccc(Cl)cc1 (centres unmarked) at or above 20%?
not fulfilled

Answer whether inhibition at 1 µM of C[C@H](NS(=O)(=O)/C=C/c1nn(-c2ccc(Cl)cc2Cl)c2c1CCCCC2Cc1cccc(Cl)c1)c1ccccc1 (some centres unmarked) is greater than or equal to 20%.
fulfilled
